The following are reported MIC results, target or system Streptococcus pneumoniae D39.

[
  {
    "molecule": "CCCOc1cccc(C(=O)Nc2ccc(Br)cc2C(=O)O)c1",
    "unit-annotation": "mg/L",
    "relational-operator": "=",
    "MIC": 1
  },
  {
    "molecule": "CCCOc1cccc(C(=O)Nc2ccccc2C(=O)O)c1",
    "unit-annotation": "mg/L",
    "relational-operator": "=",
    "MIC": 256
  },
  {
    "molecule": "CCCCOc1ccc2cc(S(=O)(=O)Nc3ccccc3C(=O)O)ccc2c1",
    "unit-annotation": "mg/L",
    "relational-operator": "=",
    "MIC": 1
  },
  {
    "molecule": "CCCOc1cccc(C(=O)Nc2ccc(C)cc2C(=O)O)c1",
    "unit-annotation": "mg/L",
    "relational-operator": "=",
    "MIC": 2
  },
  {
    "molecule": "NC(=O)c1cccc(NS(=O)(=O)c2cccc3cccnc23)c1 [compound 2, 3-(Quinoline-8-sulfonamido)benzamide]",
    "unit-annotation": "mg/L",
    "relational-operator": ">",
    "MIC": 512
  },
  {
    "molecule": "CC1(C)S[C@@H]2[C@H](NC(=O)[C@H](N)c3ccccc3)C(=O)N2[C@H]1C(=O)O [Ampicillin, reference compound]",
    "unit-annotation": "mg/L",
    "relational-operator": "=",
    "MIC": 0.06
  },
  {
    "molecule": "CCCOc1ccc(C(=O)Nc2ccc(Br)cc2C(=O)O)cc1",
    "unit-annotation": "mg/L",
    "relational-operator": "=",
    "MIC": 16
  }
]

----------
Biological target: PBP2x 5204 (Streptococcus pneumoniae, UniProt P59676)
Sequence (P59676 49-750): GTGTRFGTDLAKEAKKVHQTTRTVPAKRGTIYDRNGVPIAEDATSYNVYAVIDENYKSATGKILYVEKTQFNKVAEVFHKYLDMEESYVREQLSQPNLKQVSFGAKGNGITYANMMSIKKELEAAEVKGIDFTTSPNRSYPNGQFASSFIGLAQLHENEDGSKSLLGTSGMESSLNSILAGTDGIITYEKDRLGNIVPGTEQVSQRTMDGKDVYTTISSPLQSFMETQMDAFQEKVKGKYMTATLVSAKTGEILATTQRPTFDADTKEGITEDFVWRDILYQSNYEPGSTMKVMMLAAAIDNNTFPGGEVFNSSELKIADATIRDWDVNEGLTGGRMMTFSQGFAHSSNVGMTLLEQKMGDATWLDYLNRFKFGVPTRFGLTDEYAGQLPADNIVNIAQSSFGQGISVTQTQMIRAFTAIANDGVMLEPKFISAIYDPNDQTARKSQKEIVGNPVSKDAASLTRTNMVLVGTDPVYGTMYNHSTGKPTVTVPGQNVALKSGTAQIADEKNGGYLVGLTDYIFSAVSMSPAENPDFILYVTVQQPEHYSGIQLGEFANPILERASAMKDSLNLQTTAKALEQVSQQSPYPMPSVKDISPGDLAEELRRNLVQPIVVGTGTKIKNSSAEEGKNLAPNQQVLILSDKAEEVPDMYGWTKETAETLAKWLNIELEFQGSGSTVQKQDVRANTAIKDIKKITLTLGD
Experiment: PBP2x 5204 enzymatic inhibition assay (S2d hydrolysis, DTNB)
Format: biochemical, Streptococcus pneumoniae strain 5204
Details: residual activity of the enzyme at 1 mM inhibitor; 240 min
Protocol: PBP2x-5204 from Streptococcus pneumonia and N-benzoyl-D-alanyl-thioglycolate S2d[21], [22] were prepared as previously described. All assays with PBP2x 5204 were carried out in 96-well microtiter plates (Brand, Wertheim, Germany). […] After the preincubation, the RA of PBP2x 5204 was determined. […] The rate of spontaneous hydrolysis of S2d in the presence of the potential inhibitors was also determined in the absence of PBP2x 5204. […]
measurement-name: PBP2x5204 RA [%] (%)

[
  {
    "molecule": "CCCOc1ccc(C(=O)Nc2ccc(O)cc2C(=O)O)cc1",
    "subject-of-test": "PBP2x 5204 (Streptococcus pneumoniae, UniProt P59676)",
    "measurement-name": "PBP2x5204 RA [%]",
    "reading": 65
  },
  {
    "molecule": "CCOc1ccc(NS(=O)(=O)c2ccc(C(=O)O)cc2)cc1",
    "subject-of-test": "PBP2x 5204 (Streptococcus pneumoniae, UniProt P59676)",
    "measurement-name": "PBP2x5204 RA [%]",
    "reading": 101
  },
  {
    "molecule": "CCOc1ccc(S(=O)(=O)Nc2ccc(C(=O)O)cc2)cc1",
    "subject-of-test": "PBP2x 5204 (Streptococcus pneumoniae, UniProt P59676)",
    "measurement-name": "PBP2x5204 RA [%]",
    "reading": 81
  },
  {
    "molecule": "NC(=O)c1cccc(NS(=O)(=O)c2cccc3cccnc23)c1 [compound 2, 3-(Quinoline-8-sulfonamido)benzamide]",
    "subject-of-test": "PBP2x 5204 (Streptococcus pneumoniae, UniProt P59676)",
    "measurement-name": "PBP2x5204 RA [%]",
    "reading": 123
  },
  {
    "molecule": "CCCOc1ccc(C(=O)Nc2ccccc2C(=O)O)cc1",
    "subject-of-test": "PBP2x 5204 (Streptococcus pneumoniae, UniProt P59676)",
    "measurement-name": "PBP2x5204 RA [%]",
    "reading": 103
  },
  {
    "molecule": "CCCOc1cccc(C(=O)Nc2ccccc2C(=O)O)c1",
    "subject-of-test": "PBP2x 5204 (Streptococcus pneumoniae, UniProt P59676)",
    "measurement-name": "PBP2x5204 RA [%]",
    "reading": 97
  },
  {
    "molecule": "CCCOc1ccc(C(=O)Nc2ccc(Br)cc2C(=O)O)cc1",
    "subject-of-test": "PBP2x 5204 (Streptococcus pneumoniae, UniProt P59676)",
    "measurement-name": "PBP2x5204 RA [%]",
    "reading": 41
  },
  {
    "molecule": "CCCOc1cccc(C(=O)Nc2ccc(C)cc2C(=O)O)c1",
    "subject-of-test": "PBP2x 5204 (Streptococcus pneumoniae, UniProt P59676)",
    "measurement-name": "PBP2x5204 RA [%]",
    "reading": 121
  }
]
